Data provenance: patent US9815831B2

- measuredOn: human recombinant Met kinase (Homo sapiens)
- Construct: purchased Cell Signalling Technology, Beverly, Mass
- Sequence (P08581 25-1390): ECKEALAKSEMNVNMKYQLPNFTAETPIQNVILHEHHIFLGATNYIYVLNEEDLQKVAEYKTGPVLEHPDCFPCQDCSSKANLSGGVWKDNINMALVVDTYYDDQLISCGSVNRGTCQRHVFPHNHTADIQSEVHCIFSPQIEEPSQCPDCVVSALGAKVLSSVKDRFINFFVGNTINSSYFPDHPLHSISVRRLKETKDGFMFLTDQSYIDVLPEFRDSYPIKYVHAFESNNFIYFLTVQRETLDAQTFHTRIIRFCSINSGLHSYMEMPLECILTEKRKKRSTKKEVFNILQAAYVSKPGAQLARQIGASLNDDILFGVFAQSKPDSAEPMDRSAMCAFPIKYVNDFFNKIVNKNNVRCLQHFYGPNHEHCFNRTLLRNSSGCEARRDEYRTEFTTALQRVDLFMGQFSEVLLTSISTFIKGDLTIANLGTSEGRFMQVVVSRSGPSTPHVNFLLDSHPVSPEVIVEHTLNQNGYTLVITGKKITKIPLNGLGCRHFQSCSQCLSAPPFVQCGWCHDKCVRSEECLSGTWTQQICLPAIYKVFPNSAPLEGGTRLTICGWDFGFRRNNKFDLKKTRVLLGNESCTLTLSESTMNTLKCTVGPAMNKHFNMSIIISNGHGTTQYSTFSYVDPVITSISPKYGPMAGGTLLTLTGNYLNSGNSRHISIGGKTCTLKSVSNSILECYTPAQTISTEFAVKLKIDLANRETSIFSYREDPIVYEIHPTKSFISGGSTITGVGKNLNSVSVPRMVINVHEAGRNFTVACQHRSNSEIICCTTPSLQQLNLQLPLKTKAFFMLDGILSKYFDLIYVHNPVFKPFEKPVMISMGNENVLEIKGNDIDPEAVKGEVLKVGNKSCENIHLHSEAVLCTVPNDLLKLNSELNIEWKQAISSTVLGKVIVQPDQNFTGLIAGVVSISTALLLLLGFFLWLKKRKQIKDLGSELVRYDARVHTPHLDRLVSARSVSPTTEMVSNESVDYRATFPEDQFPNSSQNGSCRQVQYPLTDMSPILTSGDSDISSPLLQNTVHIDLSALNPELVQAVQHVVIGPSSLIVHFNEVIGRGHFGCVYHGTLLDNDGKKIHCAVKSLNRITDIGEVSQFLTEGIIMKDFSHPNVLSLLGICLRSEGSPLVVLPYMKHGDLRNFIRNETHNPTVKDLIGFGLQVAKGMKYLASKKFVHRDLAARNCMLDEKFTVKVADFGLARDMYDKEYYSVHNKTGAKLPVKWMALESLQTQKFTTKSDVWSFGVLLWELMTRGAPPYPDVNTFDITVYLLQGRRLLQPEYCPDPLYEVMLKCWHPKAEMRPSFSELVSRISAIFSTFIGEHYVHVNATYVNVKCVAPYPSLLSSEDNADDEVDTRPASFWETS
- experiment: Colorimetric determination of c-Met kinase activity (HTScan Met Kinase Assay Kit)
- Assay type: biochemical
- conditionInfo: Table 4A; 100 nM (cells without *); read-out: c-Met Enzyme % inhibition @ 100 nM
inhibition at 0.1 µM listing for selected compounds.

compound | measuredOn | inhibition at 0.1 µM
CC(O)CONC(=O)c1ccc(-c2ccc3nnn(Cc4ccc5ncccc5c4)c3n2)cc1Cl (stereo not drawn) [Example 28] | human recombinant Met kinase (Homo sapiens) | 75 to 100%
CC(=O)OCCONC(=O)c1ccc(-c2ccc3nnn(Cc4ccc5ncccc5c4)c3n2)cc1Cl [Example 11] | human recombinant Met kinase (Homo sapiens) | 75 to 100%
CC(C)(O)CONC(=O)c1ccc(-c2ccc3nnn(Cc4ccc5ncccc5c4)c3n2)cc1F [Example 35] | human recombinant Met kinase (Homo sapiens) | 75 to 100%
C[C@H](O)CONC(=O)c1ccc(-c2ccc3nnn(Cc4ccc5ncccc5c4)c3n2)cc1Cl [Example 31] | human recombinant Met kinase (Homo sapiens) | 50 to 75%
Cc1ccc2cc(Cn3nnc4ccc(-c5ccc(C(=O)NOCCO)c(Cl)c5)nc43)ccc2n1 [Example 17] | human recombinant Met kinase (Homo sapiens) | < 25%
Cc1cc(-c2ccc3nnn(Cc4ccc5ncccc5c4)c3n2)ccc1C(=O)NO [Example 42] | human recombinant Met kinase (Homo sapiens) | 75 to 100%
Cc1cc(-c2ccc3nnn(Cc4ccc5ncccc5c4)c3n2)ccc1C(=O)NOCCO [Example 25] | human recombinant Met kinase (Homo sapiens) | 75 to 100%
Cc1cc(-c2ccc3nnn(Cc4ccc5[nH]c(=O)ccc5c4)c3n2)ccc1C(=O)NOCC(C)(C)O [Example 37] | human recombinant Met kinase (Homo sapiens) | 50 to 75%
CC(C)(C)C(=O)OCCONC(=O)c1ccc(-c2ccc3nnn(Cc4ccc5ncccc5c4)c3n2)cc1Cl [Example 14] | human recombinant Met kinase (Homo sapiens) | 75 to 100%
